assay: Drug level in rat brain at 10 mg/kg, po after 1 hr; format: ADME, organism-based; parameters: dose 10 mg/kg, route oral; conditions: read-out: Drug uptake
MEASUREMENT_KIND: concentration at 1 h (nM)

Below, each entry is followed by its recorded concentration at 1 h result.
CHEM_SMILES | concentration at 1 h, nM
CNCc1cc(C#CCCN2CCC(F)CC2)ccc1Oc1ccc(SC)cc1 | 44
CNCc1cc(C#CCCN2CCOCC2)ccc1Oc1cccc(F)c1 | 820

A. CNCc1cc(C#CCCNC2CC2)ccc1Oc1ccc(SC)cc1
B. CNCc1cc(C#CCCN2CCOCC2)ccc1Oc1ccc(F)cc1Cl
[in] Could you tell me which of A and B has the lower concentration at 1 h reading? Which one? Tell me its label.
[out] A

====

pKi: −log10 of the molar value.
The next entries give measured pKi for Sodium-dependent noradrenaline transporter (Homo sapiens, UniProt P23975).
MEASUREMENT_KIND: pKi

CHEM_SMILES | TARGET | ENDPOINT_RESULT
CNCc1cc(C#CCCN2CCOCC2)ccc1Oc1ccc(SC)cc1 | Sodium-dependent noradrenaline transporter (Homo sapiens, UniProt P23975) | 6.54

I. CNCc1cc(C#CCCN2CCOCC2)ccc1Oc1ccc(SC)c(C)c1
II. CNCc1cc(C#CCCN2CCC(F)CC2)ccc1Oc1ccc(SC)cc1
[in] Which gives the smaller pKi number: I or II ? Write the label of whichever entry you select.
[out] I
(I: 6.62, II: 7.02)

====

test: Drug level in rat brain at 10 mg/kg, po after 3 hrs; type: ADME, organism-based; set-up: dose 10 mg/kg, route oral; conditions: read-out: Drug uptake
MEASUREMENT_KIND: concentration at 3 h (µM)

CHEM_SMILES | concentration at 3 h, µM
CNCc1cc(C#CCCN2CCOCC2)ccc1Oc1ccc(C(F)(F)F)cc1 | 4.65
CNCc1cc(C#CCCN2CCOCC2)ccc1Oc1cccc(Cl)c1 | 5.13
CNCc1cc(C#CCCN2CCOCC2)ccc1Oc1ccc(Cl)cc1 | 1.7
CNCc1cc(C#CCCN(C)C2CC2)ccc1Oc1ccc(SC)cc1 | 0.22
CNCc1cc(C#CCCN2CCOCC2)ccc1Oc1ccc(F)cc1Cl | 0.44

1. CNCc1cc(C#CCCNC2CC2)ccc1Oc1ccc(SC)cc1
2. CNCc1cc(C#CCCN2CCC(F)CC2)ccc1Oc1ccc(SC)cc1
[in] Choose between 1 and 2 : whose measured concentration at 3 h value is numerically larger? Answer by stating the label of the chosen item.
[out] 1

a. CNCc1cc(C#CCCN2CCOCC2)ccc1Oc1ccc(Cl)c(C(F)(F)F)c1
b. CNCc1cc(C#CCCN2CCSCC2)ccc1Oc1ccc(SC)cc1
[in] Which is greater in concentration at 3 h, the first item a or the second item b ? Respond using the label that marks the chosen record.
[out] a

====

experiment: Drug level in rat brain at 10 mg/kg, po after 6 hrs; format: ADME, organism-based; design: dose 10 mg/kg, route oral; details: read-out: Drug uptake
MEASUREMENT_KIND: concentration at 6 h (nM)

P. CNCc1cc(C#CCCN2CCOCC2)ccc1Oc1cccc(Cl)c1
Q. CNCc1cc(C#CCCN2CCOCC2)ccc1Oc1cccc(F)c1
R. CNCc1cc(C#CCCN2CCOCC2)ccc1Oc1ccc(F)cc1Cl
S. CNCc1cc(C#CCCN(C)C2CC2)ccc1Oc1ccc(SC)cc1
T. CNCc1cc(C#CCCN2CCSCC2)ccc1Oc1ccc(SC)cc1
[in] Highest to lowest concentration at 6 h: rank the entries shown above. Reply: labels, ordered per the request.
[out] P, Q, R, S, T

1. CNCc1cc(C#CCCN2CCOCC2)ccc1Oc1ccc(Cl)cc1
2. CNCc1cc(C#CCCNC2CC2)ccc1Oc1ccc(SC)cc1
[in] Short answer wanted: higher concentration at 6 h, 1 or 2 ? Choose, then provide that item's label.
[out] 1

1. CNCc1cc(C#CCCN2CCC(F)CC2)ccc1Oc1ccc(SC)cc1
2. CNCc1cc(C#CCCN2CCOCC2)ccc1Oc1ccc(Cl)c(C(F)(F)F)c1
[in] Dear colleague, could you let me know whether 1 or 2 has the lower recorded concentration at 6 h? Thanks. Pick one and reply with its label.
[out] 1
(1: 130 nM, 2: 3560 nM)

Just for reference, ChEMBL document CHEMBL1149657 is where these values come from.
